Data origin, for the record: ChEMBL document CHEMBL1158509

Molecular target: Prostaglandin D2 receptor 2 (Homo sapiens, UniProt Q9Y5Y4)
Sequence (Q9Y5Y4 whole entry): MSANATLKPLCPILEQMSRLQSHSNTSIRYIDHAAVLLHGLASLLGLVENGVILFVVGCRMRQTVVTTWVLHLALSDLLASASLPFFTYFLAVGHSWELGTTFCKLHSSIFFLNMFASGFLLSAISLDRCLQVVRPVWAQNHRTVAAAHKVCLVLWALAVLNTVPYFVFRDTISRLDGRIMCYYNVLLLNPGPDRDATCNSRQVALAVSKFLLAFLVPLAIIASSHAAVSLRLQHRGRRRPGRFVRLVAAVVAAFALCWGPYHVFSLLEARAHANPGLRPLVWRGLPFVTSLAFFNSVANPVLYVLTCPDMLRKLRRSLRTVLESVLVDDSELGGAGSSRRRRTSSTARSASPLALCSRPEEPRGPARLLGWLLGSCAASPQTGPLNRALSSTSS
Experiment: Displacement of[3H]PGD2 from human CRTH2 receptor expressed in […] cells
Type: cell-based
Could you please report measured IC50 for the items listed next?

COMPOUND	MEASURED_QUANTITY	EXPERIMENTAL_VALUE
O=C(O)Cc1sc(CSc2ccccc2)nc1-c1ccc(Cl)cc1	IC50	250 nM
O=C(O)Cc1sc(C(c2ccc(F)cc2)c2ccc(F)cc2)nc1-c1ccnc(N2CCCC2)c1	IC50	230 nM
O=C(O)Cc1sc(COc2ccc(Cl)cc2)nc1-c1ccc(Cl)cc1	IC50	32 nM
O=C(O)Cc1sc(C(c2ccc(F)cc2)c2ccc(F)cc2)nc1-c1ccnc(F)c1	IC50	0.48 nM
Nc1ccc(-c2nc(C(c3ccc(F)cc3)c3ccc(F)cc3)sc2CC(=O)O)cn1	IC50	100 nM

Please supply IC50 for each of the following items, keeping them in order.
1. O=C(O)Cc1sc(C(c2ccccc2)c2ccccc2)nc1-c1ccc(F)cc1
2. O=C(O)Cc1sc(C(c2ccc(F)cc2)c2ccc(F)cc2)nc1-c1cc(F)cc(F)c1
3. O=C(O)Cc1sc(C(c2ccc(F)cc2)c2ccc(F)cc2)nc1-c1ccccc1
4. COc1ccc(C(c2ccc(OC)cc2)c2nc(-c3ccc(F)cc3)c(CC(=O)O)s2)cc1
5. CC(=O)N1CCN(c2cc(-c3nc(C(c4ccc(F)cc4)c4ccc(F)cc4)sc3CC(=O)O)ccn2)CC1

(A)
1. 8.7 nM
2. 35 nM
3. 16 nM
4. 3.9 nM
5. 360 nM

* * *

Assay: Permeability apical to basolateral side in human Caco-2 cells
Format: ADME, cell-based
Settings: read-out: permeability
MEASURED_QUANTITY: Papp A→B (×10⁻⁶ cm/s)
Give bare numbers, in ×10⁻⁶ cm/s.

(Q) Entry under review: O=C(O)Cc1sc(C(c2ccccc2)c2ccccc2)nc1-c1ccc(Cl)cc1 . Reported Papp A→B?
(A) 2.6

* * *

Biological target: Prostaglandin D2 receptor 2 (Homo sapiens)
Test: Antagonist activity at human CRTH2 receptor expressed in […] cells assessed as inhibition of beta arrestin translocation by bioluminescence resonance energy transfer assay
Assay type: functional, cell-based
MEASURED_QUANTITY: IC50 (µM)
Answers are plain numbers, in µM.

COMPOUND	TESTED_ON	IC50 / µM
O=C(O)Cc1sc(NCc2ccccc2)nc1-c1ccc(Cl)cc1	Prostaglandin D2 receptor 2 (Homo sapiens)	2.3
O=C(O)Cc1sc(C(c2ccc(F)cc2)c2ccc(F)cc2)nc1-c1ccc(F)cc1	Prostaglandin D2 receptor 2 (Homo sapiens)	0.072
O=C(O)Cc1sc(C(c2ccc(F)cc2)c2ccc(F)cc2)nc1-c1cncc(F)c1	Prostaglandin D2 receptor 2 (Homo sapiens)	0.3
N#Cc1cc(-c2nc(C(c3ccc(F)cc3)c3ccc(F)cc3)sc2CC(=O)O)ccc1F	Prostaglandin D2 receptor 2 (Homo sapiens)	0.52
O=C(O)Cc1sc(C(c2ccc(F)cc2)c2ccc(F)cc2)nc1-c1ccncc1	Prostaglandin D2 receptor 2 (Homo sapiens)	0.04
O=C(O)Cc1sc(C(c2ccccc2)c2ccc(Cl)cc2)nc1-c1ccc(F)cc1 (configuration not stated)	Prostaglandin D2 receptor 2 (Homo sapiens)	0.079
COc1ccc(C(c2ccccn2)c2nc(-c3ccc(Cl)cc3)c(CC(=O)O)s2)cc1 (configuration not stated)	Prostaglandin D2 receptor 2 (Homo sapiens)	0.31
O=C(O)Cc1sc(C(c2ccccc2)c2ccccc2)nc1-c1cccc(F)c1	Prostaglandin D2 receptor 2 (Homo sapiens)	0.029

Please supply IC50 for each of the following items, keeping them in order.
1. COc1ccc(-c2nc(C(c3ccccc3)c3ccccc3)sc2CC(=O)O)cc1
2. O=C(O)Cc1sc(C(c2ccc(F)cc2)c2ccc(F)cc2)nc1-c1ccnc(Cl)c1
3. O=C(O)Cc1sc(C(c2ccccc2)c2ccc(F)cc2)nc1-c1ccc(Cl)cc1 (configuration not stated)
4. Cn1cc(-c2nc(C(c3ccc(F)cc3)c3ccc(F)cc3)sc2CC(=O)O)cn1
5. O=C(O)Cc1sc(-c2ccco2)nc1-c1ccc(Cl)cc1
6. Nc1ccc(-c2nc(C(c3ccc(F)cc3)c3ccc(F)cc3)sc2CC(=O)O)cn1
7. O=C(O)Cc1sc(C(c2ccc(F)cc2)c2ccc(F)cc2)nc1-c1ccc(F)c(F)c1
8. O=C(O)Cc1sc(Nc2cccc3ccccc23)nc1-c1ccc(Cl)cc1

(A)
[0.91, 0.039, 0.036, 3.5, 3.8, 0.5, 0.041, 0.096]

Please supply IC50 for each of the following items, keeping them in order.
1. CNc1cc(-c2nc(C(c3ccc(F)cc3)c3ccc(F)cc3)sc2CC(=O)O)ccn1
2. O=C(O)Cc1sc(C(c2ccccc2)c2ccccc2)nc1-c1ccc(F)c(F)c1
3. O=C(O)Cc1sc(C(c2ccccc2)c2ccc(F)c(F)c2)nc1-c1ccc(F)cc1 (configuration not stated)
4. COc1ccc(C(c2ccccc2)c2nc(-c3ccc(F)cc3)c(CC(=O)O)s2)cc1 (configuration not stated)
5. O=C(O)Cc1sc(C(c2ccccc2)c2ccccc2)nc1-c1ccc(Cl)cc1

(A)
0.17
0.043
0.064
0.031
0.06

Please supply IC50 for each of the following items, keeping them in order.
1. O=C(O)Cc1sc(C(Cc2ccccc2)c2ccccc2)nc1-c1ccc(Cl)cc1 (configuration not stated)
2. O=C(O)Cc1sc(Cc2cccc3ccccc23)nc1-c1ccc(Cl)cc1
3. O=C(O)Cc1sc(CSc2ccccc2)nc1-c1ccc(Cl)cc1
4. Cc1cc(-c2nc(C(c3ccc(F)cc3)c3ccc(F)cc3)sc2CC(=O)O)ccn1
5. O=C(O)Cc1sc(C(c2ccccc2)c2ccccn2)nc1-c1ccc(Cl)cc1 (configuration not stated)
6. Cc1nc(-c2ccc(Cl)cc2)c(CC(=O)O)s1
7. Nc1cc(-c2nc(C(c3ccc(F)cc3)c3ccc(F)cc3)sc2CC(=O)O)cc(F)n1
8. O=C(O)Cc1sc(C(c2ccc(F)cc2)c2ccc(F)cc2)nc1-c1ccco1

(A)
1. 0.51
2. 0.57
3. 0.45
4. 0.053
5. 1.9
6. 41
7. 1.4
8. 0.14

(Q) Entry under review: O=C(O)Cc1sc(NCCc2ccccc2)nc1-c1ccc(Cl)cc1 . Reported IC50?
(A) 0.39

* * *

Biological target: Prostaglandin D2 receptor 2 (Homo sapiens) (UniProt Q9Y5Y4)
Sequence (Q9Y5Y4 whole entry): as above
Assay: Antagonist activity at human CRTH2 receptor expressed in […] cells assessed as inhibition of beta arrestin translocation by bioluminescence resonance energy transfer assay relative to control
Format: functional, cell-based
Could you please report measured Efficacy for the items listed next?
Numbers only, in %.

Use the examples below as a reference point.
COMPOUND	EXPERIMENTAL_VALUE
COc1cc(-c2nc(C(c3ccc(F)cc3)c3ccc(F)cc3)sc2CC(=O)O)ccn1	60
O=C(O)Cc1sc(C(c2ccc(F)cc2)c2ccc(F)cc2)nc1-c1ccnc(F)c1	80
COc1ccc(C(c2ccc(OC)cc2)c2nc(-c3ccc(F)cc3)c(CC(=O)O)s2)cc1	80
CNc1cc(-c2nc(C(c3ccc(F)cc3)c3ccc(F)cc3)sc2CC(=O)O)ccn1	80

# ---- query compound ----
(Q) Entry under review: O=C(O)Cc1sc(C2COc3ccccc3O2)nc1-c1ccc(Cl)cc1 (stereo not given) . Reported Efficacy?
(A) 50

* * *

Target: Prostaglandin D2 receptor 2 (Homo sapiens) (UniProt Q9Y5Y4)
Assay: Antagonist activity at human CRTH2 receptor expressed in […] cells assessed as inhibition of beta arrestin translocation by bioluminescence resonance energy transfer assay relative to control
Assay type: functional, cell-based
MEASURED_QUANTITY: Efficacy (%)
Numbers only, in %.

COMPOUND	Efficacy / %
O=C(O)Cc1sc(C(c2ccccc2)c2ccc(F)cc2)nc1-c1ccc(Cl)cc1 (stereo unspecified)	80
Nc1nc(-c2ccc(Cl)cc2)c(CC(=O)O)s1	50
Cc1nc(-c2ccc(Cl)cc2)c(CC(=O)O)s1	50
O=C(O)Cc1sc(C(c2ccccc2)C2CCCCC2)nc1-c1ccc(Cl)cc1 (stereo unspecified)	50
O=C(O)Cc1sc(C(c2ccccc2)c2ccccc2)nc1-c1ccccc1	80

Please supply Efficacy for each of the following items, keeping them in order.
1. COc1ccc(Cl)cc1-c1nc(C(c2ccccc2)c2ccccc2)sc1CC(=O)O
2. NS(=O)(=O)c1cccc(-c2nc(C(c3ccc(F)cc3)c3ccc(F)cc3)sc2CC(=O)O)c1
3. O=C(O)Cc1sc(C(c2ccc(F)cc2)c2ccc(F)cc2)nc1-c1ccc(Cl)cc1
4. O=C(O)Cc1sc(C(c2ccccc2)c2ccccc2)nc1-c1ccc(F)c(F)c1

(A)
[80, 55, 80, 80]

* * *

Could you please report measured bioavailability for the items listed next?
Assay: Bioavailability in rat
Format: ADME, organism-based
Conditions: in vivo
Answers are plain numbers, in %.

COMPOUND	MEASURED_QUANTITY	UNIT_NAME	EXPERIMENTAL_VALUE
O=C(O)Cc1sc(C(c2ccccc2)c2ccccc2)nc1-c1ccc(Cl)cc1	bioavailability	%	62

# ---- query compound ----
(Q) Entry under review: COc1ccc(C(c2ccccc2)c2nc(-c3ccc(F)cc3)c(CC(=O)O)s2)cc1 (configuration not stated) . Reported bioavailability?
(A) 81
